Please respond with reported IKZF2 % protein reduction at 10 µM for every item in the list.
target: IKZF2 (Helios) (Homo sapiens, UniProt Q96SW2+Q9UKS7); test: Prolabel quantification of IKZF2 protein levels in 293GT cells; assay type: cell-based; conditions: 24 h, Pro-label assay, 293GT cells, 10 μM, read-out: IKZF2 % protein reduction at 10 μM, 24 h
Sequence (Q9UKS7 whole entry): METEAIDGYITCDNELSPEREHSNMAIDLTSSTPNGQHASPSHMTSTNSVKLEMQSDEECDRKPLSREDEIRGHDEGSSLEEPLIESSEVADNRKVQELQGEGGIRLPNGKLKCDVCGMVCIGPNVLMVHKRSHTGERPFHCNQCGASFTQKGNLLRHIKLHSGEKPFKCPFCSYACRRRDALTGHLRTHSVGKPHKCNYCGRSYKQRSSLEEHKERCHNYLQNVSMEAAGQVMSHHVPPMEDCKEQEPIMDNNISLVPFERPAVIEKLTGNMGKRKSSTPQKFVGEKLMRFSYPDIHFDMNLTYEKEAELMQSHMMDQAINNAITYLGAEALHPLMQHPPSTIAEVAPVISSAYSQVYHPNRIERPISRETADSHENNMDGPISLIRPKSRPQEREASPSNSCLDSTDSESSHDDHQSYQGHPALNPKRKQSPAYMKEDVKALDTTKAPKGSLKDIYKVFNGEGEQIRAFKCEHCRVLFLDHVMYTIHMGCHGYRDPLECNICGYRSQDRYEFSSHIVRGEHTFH
Sequence (Q96SW2 whole entry): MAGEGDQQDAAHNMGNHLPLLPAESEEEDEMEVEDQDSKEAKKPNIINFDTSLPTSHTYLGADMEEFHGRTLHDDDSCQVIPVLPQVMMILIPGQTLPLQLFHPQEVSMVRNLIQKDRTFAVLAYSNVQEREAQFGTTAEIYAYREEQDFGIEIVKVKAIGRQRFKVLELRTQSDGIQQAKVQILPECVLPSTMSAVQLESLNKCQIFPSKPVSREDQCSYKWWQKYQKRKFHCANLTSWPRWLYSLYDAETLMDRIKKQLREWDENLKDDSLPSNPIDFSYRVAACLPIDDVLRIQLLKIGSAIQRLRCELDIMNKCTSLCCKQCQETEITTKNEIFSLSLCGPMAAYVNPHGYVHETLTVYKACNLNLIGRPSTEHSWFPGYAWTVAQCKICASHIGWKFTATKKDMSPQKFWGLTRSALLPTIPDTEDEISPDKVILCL
Sequence (Q16531 whole entry partner): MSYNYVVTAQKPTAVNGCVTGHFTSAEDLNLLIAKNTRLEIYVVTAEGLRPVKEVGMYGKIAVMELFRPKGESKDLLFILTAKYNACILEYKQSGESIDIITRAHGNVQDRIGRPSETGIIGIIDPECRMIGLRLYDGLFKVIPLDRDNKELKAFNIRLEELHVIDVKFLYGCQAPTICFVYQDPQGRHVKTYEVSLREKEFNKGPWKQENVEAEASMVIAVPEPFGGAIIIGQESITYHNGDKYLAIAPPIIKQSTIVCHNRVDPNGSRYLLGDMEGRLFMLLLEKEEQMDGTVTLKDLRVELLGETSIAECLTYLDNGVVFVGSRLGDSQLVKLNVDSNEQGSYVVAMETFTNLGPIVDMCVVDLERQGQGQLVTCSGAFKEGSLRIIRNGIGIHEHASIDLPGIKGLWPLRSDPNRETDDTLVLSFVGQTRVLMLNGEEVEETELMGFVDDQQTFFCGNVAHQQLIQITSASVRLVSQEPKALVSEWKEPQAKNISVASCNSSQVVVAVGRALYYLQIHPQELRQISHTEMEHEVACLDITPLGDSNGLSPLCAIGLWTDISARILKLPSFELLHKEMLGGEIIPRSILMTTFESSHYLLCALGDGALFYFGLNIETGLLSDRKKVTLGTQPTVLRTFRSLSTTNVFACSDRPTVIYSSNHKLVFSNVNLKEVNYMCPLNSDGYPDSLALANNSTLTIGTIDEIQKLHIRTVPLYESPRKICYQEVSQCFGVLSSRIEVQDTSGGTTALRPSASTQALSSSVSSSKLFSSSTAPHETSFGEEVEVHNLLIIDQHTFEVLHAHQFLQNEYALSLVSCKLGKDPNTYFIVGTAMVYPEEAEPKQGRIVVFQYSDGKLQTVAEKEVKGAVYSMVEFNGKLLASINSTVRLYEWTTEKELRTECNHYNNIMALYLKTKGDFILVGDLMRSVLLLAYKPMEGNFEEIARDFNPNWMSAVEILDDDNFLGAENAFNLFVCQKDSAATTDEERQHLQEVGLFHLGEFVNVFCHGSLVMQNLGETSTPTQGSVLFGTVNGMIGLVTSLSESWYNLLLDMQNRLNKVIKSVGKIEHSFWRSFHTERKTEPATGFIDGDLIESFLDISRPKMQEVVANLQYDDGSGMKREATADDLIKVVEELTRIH
Please don't drop the unit; write it after the number.

Here are 7 compounds together with their reported answers.
>>> measured_value("O=C1CCC(N2Cc3cc(O[C@H]4CCC[C@@H]4N4CCC5(CC4)OCCO5)ccc3C2=O)C(=O)N1 (some centres unmarked)")
"80%"
>>> measured_value("CCN[C@H]1CCC[C@@H]1Oc1ccc2c(c1)CN(C1CCC(=O)NC1=O)C2=O (some centres unmarked)")
"80%"
>>> measured_value("CCN(C(C)C)[C@H]1CCC[C@@H]1Oc1ccc2c(c1)CN(C1CCC(=O)NC1=O)C2=O (some centres unmarked)")
"80%"
>>> measured_value("COC1(C)CCN([C@H]2CCCCC[C@@H]2Oc2ccc3c(c2)CN(C2CCC(=O)NC2=O)C3=O)CC1 (some centres unmarked)")
"61%"
>>> measured_value("COC1(C)CCN([C@H]2CCC[C@@H]2Oc2ccc3c(c2)CN(C2CCC(=O)NC2=O)C3=O)CC1 (some centres unmarked)")
"82%"
>>> measured_value("O=C1CCC(N2Cc3cc(O[C@H]4CCC[C@@H]4N4CC(O)C4)ccc3C2=O)C(=O)N1 (some centres unmarked)")
"60%"
>>> measured_value("C[C@@H](N[C@H]1CCCC[C@@H]1Oc1ccc2c(c1)CN(C1CCC(=O)NC1=O)C2=O)c1ccccc1 (some centres unmarked)")
"80%"

Exam item: Give IKZF2 % protein reduction at 10 µM for the following compound: CCN(CC)[C@H]1CCCC[C@@H]1Oc1ccc2c(c1)CN(C1CCC(=O)NC1=O)C2=O (some centres unmarked)
Marked response: 60%
